experimentalTarget: T1, human CD38 (human, UniProt P28907 43-300, limits assumed)
T1 construct: Soluble analyte in SPR; the construct (limits, tags) is not described; also called huCD38
testName: SPR (Biacore), mAb captured on anti-Fc chip, after thermal stress of the mAb (14 days at 40 C); n = 3
Listing: pKd of selected binders
Schema: pKd number; meaning minus log10 of the concentration expressed in molar units.

Incoming: Given the binder mAb 6 (antibody, human IgG1, kappa, V domains shown, Humanized heavy and light chains with engineered Fc; also called anti-CD38 mAb 6; HEAVY CHAIN 5 / LIGHT CHAIN 3) VH: QVQLVQSGAEVAKPGASVKVSCKASGYTFTDYWMQWVRQAPGQGLEWIGTIYPGDGDTSYAQKFQGRVTMTADTSTSTVYMELSSLRSEDTAVYYCARGDYYGSNSLDYWGQGTLVTVSS VL: DIVMTQSPDSLAVSLGERATINCKSSQDVSTVVAWYQQKPGQSPRRLIYSASYRYIGVPDRFSGSGSGTDFTFTISSLQAEDVAVYYCQQHYSPPYTFGGGTKLEIKR , what is its reported pKd?
Outgoing: 9.46

***
Incoming: Need pKd of mAb 5 (antibody, human IgG1, kappa, V domains shown, Humanized heavy and light chains with engineered Fc; also called anti-CD38 mAb 5; HEAVY CHAIN 5 / LIGHT CHAIN 2) VH: QVQLVQSGAEVAKPGASVKVSCKASGYTFTDYWMQWVRQAPGQGLEWIGTIYPGDGDTSYAQKFQGRVTMTADTSTSTVYMELSSLRSEDTAVYYCARGDYYGSNSLDYWGQGTLVTVSS VL: DIVMTQSPDSLAVSLGERATINCKSSQDVSTVLAWYQQKPGQSPRRLIYSASYRYIGVPDRFSGSGSGTDFTLTISSLQAEDVAVYYCQQHYSPPYTFGGGTKLEIKR , thanks.
Outgoing: 9.08

Incoming: For mAb 8 (antibody, human IgG1, kappa, V domains shown, Humanized heavy and light chains with engineered Fc; also called anti-CD38 mAb 8; HEAVY CHAIN 6 / LIGHT CHAIN 3) VH: QVQLVQSGAEVAKPGASVKVSCKASGYTFTDYWMQWVKQRPGQGLEWIGTIYPGDGDTGYAQKFQGRVTMTADKSTSTVYMELSSLRSEDTAVYYCARGDYYGSNSLDYWGQGTLVTVSS VL: DIVMTQSPDSLAVSLGERATINCKSSQDVSTVVAWYQQKPGQSPRRLIYSASYRYIGVPDRFSGSGSGTDFTFTISSLQAEDVAVYYCQQHYSPPYTFGGGTKLEIKR then?
Outgoing: 9.70

Incoming: Likewise for mAb 7 (antibody, human IgG1, kappa, V domains shown, Humanized heavy and light chains with engineered Fc; also called anti-CD38 mAb 7; HEAVY CHAIN 6 / LIGHT CHAIN 2) VH: QVQLVQSGAEVAKPGASVKVSCKASGYTFTDYWMQWVKQRPGQGLEWIGTIYPGDGDTGYAQKFQGRVTMTADKSTSTVYMELSSLRSEDTAVYYCARGDYYGSNSLDYWGQGTLVTVSS VL: DIVMTQSPDSLAVSLGERATINCKSSQDVSTVLAWYQQKPGQSPRRLIYSASYRYIGVPDRFSGSGSGTDFTLTISSLQAEDVAVYYCQQHYSPPYTFGGGTKLEIKR ?
Outgoing: 9.40
